Biological target: T1, his-tagged human CDH6 extracellular region protein (hCDH6 ECD-his) (human, UniProt P55285 19-615)
T1 construct: also called Human CDH6-his; hCDH6-his; not shown: his tag
T1 sequence: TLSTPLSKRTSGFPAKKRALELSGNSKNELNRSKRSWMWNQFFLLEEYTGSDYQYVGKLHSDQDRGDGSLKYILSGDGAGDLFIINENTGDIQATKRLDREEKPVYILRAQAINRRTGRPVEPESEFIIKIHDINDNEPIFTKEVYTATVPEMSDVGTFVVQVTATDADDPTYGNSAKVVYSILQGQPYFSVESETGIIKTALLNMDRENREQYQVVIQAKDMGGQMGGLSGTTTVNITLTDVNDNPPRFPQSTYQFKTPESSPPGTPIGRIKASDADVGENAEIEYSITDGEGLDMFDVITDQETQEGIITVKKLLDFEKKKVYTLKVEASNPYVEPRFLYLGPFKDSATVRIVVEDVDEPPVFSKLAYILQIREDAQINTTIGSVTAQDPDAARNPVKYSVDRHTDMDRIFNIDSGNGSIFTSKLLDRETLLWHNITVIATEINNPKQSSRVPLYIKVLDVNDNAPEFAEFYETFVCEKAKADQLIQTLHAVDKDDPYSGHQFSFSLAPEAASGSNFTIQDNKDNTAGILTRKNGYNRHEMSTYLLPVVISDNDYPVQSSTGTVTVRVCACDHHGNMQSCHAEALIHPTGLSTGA
Test: ELISA, coated antigen
quantity_measured: Max OD450 (OD450)
Quick reminder: number only, in OD450, skip the unit.

Worked cases, Max OD450 given:
hCDH6-6-H3L1 (antibody, V domains shown, Humanized) VH: EVQLVQSGAEVKKPGASVKVSCKASGYTFTDYYMAWVRQAPRQGLEWMGYIFPNSGGTDYSQKFKGRVTMTVDKSTSTVYMELSSLRSEDTAVYYCARELGADYGDYYAMDHWGQGTTVTVSS VL: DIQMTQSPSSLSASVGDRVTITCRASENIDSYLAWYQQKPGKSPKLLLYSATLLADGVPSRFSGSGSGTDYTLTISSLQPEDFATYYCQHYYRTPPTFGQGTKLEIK; 2.02
hCDH6-6-H2L5 (antibody, V domains shown, Humanized) VH: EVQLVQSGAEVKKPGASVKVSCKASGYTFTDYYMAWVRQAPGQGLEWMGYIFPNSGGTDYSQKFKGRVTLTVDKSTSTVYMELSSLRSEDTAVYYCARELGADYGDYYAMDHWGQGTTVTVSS VL: DIVMTQSPLSLPVTPGEPASISCRASENIDSYLAWYLQKPGKSPQLLVYSATLLADGVPDRFSGSGSGTDFTLKISRVEAEDVGVYYCQHYYRTPPTFGQGTKLEIK; 2.1

Let us examine a further case.
The reported value for hCDH6-6-H2L4 (antibody, V domains shown, Humanized) VH: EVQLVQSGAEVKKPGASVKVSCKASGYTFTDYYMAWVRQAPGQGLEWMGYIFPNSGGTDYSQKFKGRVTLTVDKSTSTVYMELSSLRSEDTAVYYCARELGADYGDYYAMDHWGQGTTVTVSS VL: DIQMTQSPSSLSASVGDRVTITCRASENIDSYLAWYQQKPGKSPKLLVYSATLLADGVPSRFSGSGSGTDYTLTISSLQPEDFARYYCQHYYRTPPTFGQGTKLEIK in terms of Max OD450 is 2.14
